TARGET ENTITY: human NaPi-IIb (Homo sapiens, UniProt O95436)
Construct: expressed in transfected cells
Sequence (O95436 1-690): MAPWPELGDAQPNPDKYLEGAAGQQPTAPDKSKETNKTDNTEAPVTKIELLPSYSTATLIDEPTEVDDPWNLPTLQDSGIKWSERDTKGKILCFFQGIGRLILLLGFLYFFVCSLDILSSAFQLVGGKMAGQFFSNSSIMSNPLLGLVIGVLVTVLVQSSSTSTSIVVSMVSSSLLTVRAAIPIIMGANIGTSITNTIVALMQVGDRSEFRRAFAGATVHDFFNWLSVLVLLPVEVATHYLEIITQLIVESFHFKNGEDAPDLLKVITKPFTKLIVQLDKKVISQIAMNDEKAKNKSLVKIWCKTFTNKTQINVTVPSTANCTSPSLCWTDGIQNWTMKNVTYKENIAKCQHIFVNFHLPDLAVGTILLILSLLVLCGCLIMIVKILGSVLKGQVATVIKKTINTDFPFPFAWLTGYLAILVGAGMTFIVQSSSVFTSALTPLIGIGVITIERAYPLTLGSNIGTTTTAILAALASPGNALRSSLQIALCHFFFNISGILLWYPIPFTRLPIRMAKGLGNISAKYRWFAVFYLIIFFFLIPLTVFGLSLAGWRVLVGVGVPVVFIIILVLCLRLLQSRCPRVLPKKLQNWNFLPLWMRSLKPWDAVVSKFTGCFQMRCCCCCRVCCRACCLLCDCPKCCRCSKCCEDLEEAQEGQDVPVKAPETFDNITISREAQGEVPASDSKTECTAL
RUN DESCRIPTION: Inhibitory effect on 33PO4 uptake into human NaPi-IIb-expressing CHO cells
Format: cell-based
RUN CONDITIONS: read-out: IC50 against 33PO4 uptake into human NaPi-IIb-expressing cells
ENDPOINT LABEL: pIC50
Remember, pIC50 is on a log scale: it is -log10 of the molar concentration.

Recorded pIC50, per entry:
COMPOUND | pIC50
CN1N(Cc2ccc(OCCN3C4CCC3COC4)c(F)c2F)C(=O)C(C(=O)Nc2ccc(C(F)(F)F)cc2-c2cc(C(F)(F)F)ncn2)=C(O)C12CCCC2 [Example 367] | 4.85
CN1N(Cc2ccc(OCCN3CCC(N4CCOCC4)CC3)c(F)c2F)C(=O)C(C(=O)Nc2ccc(C(F)(F)F)cc2-c2cc(C(F)(F)F)ncn2)=C(O)C12CCC2 [Example 358] | 5.04

Next:
IN: // returns reported pIC50 for input CN(CCOCCC(=O)NCC(O)CO)CCOc1ccc(CN2C(=O)C(C(=O)Nc3ccc(C(F)(F)F)cc3-c3cc(C(F)(F)F)ncn3)=C(O)C3(CCCC3)N2C)c(F)c1F (stereo not drawn) [Example 426]
OUT: 4.58
